This section presents compounds with their documented pIC50 values.
# subject_of_test: STK4 (MST1) (Homo sapiens (Human), UniProt Q13043)
# Sequence (Q13043 whole entry): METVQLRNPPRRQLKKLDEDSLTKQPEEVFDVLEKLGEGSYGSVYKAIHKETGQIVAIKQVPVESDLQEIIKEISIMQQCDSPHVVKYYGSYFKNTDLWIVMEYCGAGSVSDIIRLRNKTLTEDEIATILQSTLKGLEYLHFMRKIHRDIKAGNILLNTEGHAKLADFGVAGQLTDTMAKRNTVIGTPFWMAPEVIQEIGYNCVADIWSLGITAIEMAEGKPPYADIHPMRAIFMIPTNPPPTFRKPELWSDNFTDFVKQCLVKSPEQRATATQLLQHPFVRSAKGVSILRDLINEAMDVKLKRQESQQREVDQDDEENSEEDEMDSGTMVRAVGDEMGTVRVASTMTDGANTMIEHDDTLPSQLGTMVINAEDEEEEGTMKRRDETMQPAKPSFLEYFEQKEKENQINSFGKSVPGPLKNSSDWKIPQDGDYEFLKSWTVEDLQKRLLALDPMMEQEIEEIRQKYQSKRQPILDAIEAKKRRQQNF
pIC50: −log10 of the molar value.

Study these solved cases before continuing.
- given_smiles: "Nc1ncc(-c2cc([N+](=O)[O-])c(NCc3ccccc3)cc2F)cc1-c1ccc2c(c1)CCNC2=O"
  measurement_name: "pIC50"
  test_value: "6.70 to 7.40"
- given_smiles: "COc1ccncc1-c1cnc(N)c(-c2ccc3c(c2)CCNC3=O)c1"
  measurement_name: "pIC50"
  test_value: "< 6.05"
- given_smiles: "Nc1ncc(-c2cccc(-c3nccs3)c2)cc1-c1ccc2c(c1)CCNC2=O"
  measurement_name: "pIC50"
  test_value: "> 7.40"

In the following, a different compound is considered.
INPUT: # lookup: pIC50 of COc1cc(S(=O)(=O)N(C)C2CCCCC2)ccc1-c1cnc(N)c(-c2ccc3c(c2)CCNC3=O)c1
OUTPUT: 6.70 to 7.40

###

# subject_of_test: PIK3C3 (Homo sapiens (Human), UniProt Q8NEB9)
# Sequence (Q8NEB9 whole entry): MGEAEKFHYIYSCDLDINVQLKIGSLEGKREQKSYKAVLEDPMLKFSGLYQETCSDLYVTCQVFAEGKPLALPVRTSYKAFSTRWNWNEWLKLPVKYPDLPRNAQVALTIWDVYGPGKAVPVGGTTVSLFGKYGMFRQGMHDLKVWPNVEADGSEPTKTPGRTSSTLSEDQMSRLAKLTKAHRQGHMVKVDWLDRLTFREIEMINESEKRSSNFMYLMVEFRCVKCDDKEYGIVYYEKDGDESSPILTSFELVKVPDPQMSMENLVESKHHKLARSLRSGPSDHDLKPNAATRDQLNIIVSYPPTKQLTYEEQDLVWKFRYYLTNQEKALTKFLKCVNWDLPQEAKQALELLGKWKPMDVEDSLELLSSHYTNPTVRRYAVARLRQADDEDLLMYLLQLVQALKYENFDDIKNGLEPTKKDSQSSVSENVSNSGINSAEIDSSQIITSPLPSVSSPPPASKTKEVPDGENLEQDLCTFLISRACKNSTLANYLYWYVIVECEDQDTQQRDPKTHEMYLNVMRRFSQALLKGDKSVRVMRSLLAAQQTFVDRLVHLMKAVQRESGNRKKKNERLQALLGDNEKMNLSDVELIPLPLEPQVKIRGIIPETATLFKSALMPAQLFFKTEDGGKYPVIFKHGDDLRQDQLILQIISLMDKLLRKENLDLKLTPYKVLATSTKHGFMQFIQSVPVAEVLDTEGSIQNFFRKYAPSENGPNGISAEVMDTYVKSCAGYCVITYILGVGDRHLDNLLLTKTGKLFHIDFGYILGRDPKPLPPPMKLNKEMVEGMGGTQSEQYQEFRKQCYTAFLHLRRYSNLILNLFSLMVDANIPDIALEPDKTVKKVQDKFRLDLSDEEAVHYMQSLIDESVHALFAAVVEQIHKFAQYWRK
# experimental_details: KiNativ assay
# Format: binding
# cond: H929 live cell, read-out: inhibition (10 μM)
measurement_name: inhibition at 10 µM (%)
Field format: number, assumed %, no unit text.

- given_smiles: "CN(C1CC1)S(=O)(=O)c1ccc(-c2cnc(N)c(-c3ccc4c(c3)CCNC4=O)c2)c(F)c1"
  subject_of_test: "PIK3C3 (Homo sapiens (Human), UniProt Q8NEB9)"
  inhibition at 10 µM [%]: -107
- given_smiles: "COc1cc(NS(=O)(=O)C2CC2)ccc1-c1cnc(N)c(-c2ccc3c(c2)CCNC3=O)c1"
  subject_of_test: "PIK3C3 (Homo sapiens (Human), UniProt Q8NEB9)"
  inhibition at 10 µM [%]: -32.5
- given_smiles: "Nc1ncc(-c2ccc(NS(=O)(=O)C3CC3)cc2OC2CCCCC2)cc1-c1ccc2c(c1)CCNC2=O"
  subject_of_test: "PIK3C3 (Homo sapiens (Human), UniProt Q8NEB9)"
  inhibition at 10 µM [%]: -15
- given_smiles: "Nc1ncc(-c2cccc3ncsc23)cc1-c1ccc2c(c1)CCNC2=O"
  subject_of_test: "PIK3C3 (Homo sapiens (Human), UniProt Q8NEB9)"
  inhibition at 10 µM [%]: 24.8
- given_smiles: "Nc1ncc(-c2ccc(NS(=O)(=O)C3CC3)cc2F)cc1-c1ccc2c(c1)CCNC2=O"
  subject_of_test: "PIK3C3 (Homo sapiens (Human), UniProt Q8NEB9)"
  inhibition at 10 µM [%]: -13.2

In the following, a different compound is considered.
INPUT: # lookup: inhibition at 10 µM of Nc1ncc(-c2cccc([N+](=O)[O-])c2F)cc1-c1ccc2c(c1)CCNC2=O
OUTPUT: 51.2

###

This section presents compounds with their documented inhibition at 10 µM values.
# subject_of_test: MPSK1 (Homo sapiens (Human))
# Sequence (O75716 whole entry): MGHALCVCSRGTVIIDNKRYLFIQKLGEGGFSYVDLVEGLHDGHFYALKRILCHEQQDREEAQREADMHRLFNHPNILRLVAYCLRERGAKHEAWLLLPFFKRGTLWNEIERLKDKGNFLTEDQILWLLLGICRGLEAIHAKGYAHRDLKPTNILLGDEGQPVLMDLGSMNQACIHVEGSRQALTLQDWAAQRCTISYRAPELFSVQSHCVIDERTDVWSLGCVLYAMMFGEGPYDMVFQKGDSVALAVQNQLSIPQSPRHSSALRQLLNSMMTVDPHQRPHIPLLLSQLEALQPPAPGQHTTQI
# experimental_details: KiNativ assay
# Format: binding
# cond: H929 live cell, read-out: inhibition (10 μM)
Field format: number, assumed %, no unit text.

INPUT: # lookup: inhibition at 10 µM of Nc1ncc(-c2ccc(NS(=O)(=O)C3CC3)cc2F)cc1-c1ccc2c(c1)CCNC2=O
OUTPUT: 43.9

INPUT: # lookup: inhibition at 10 µM of Nc1ncc(-c2ccc(NS(=O)(=O)C3CC3)cc2OC2CCCCC2)cc1-c1ccc2c(c1)CCNC2=O
OUTPUT: 72.8
